# assay.info: NCI Yeast Anticancer Drug Screen. Data for the mlh1 rad18 strain (AID 175)
# assay.conditions: S. cerevisiae mlh1 rad18 strain growth inhibition; at 50.0 µM (retest, dose inferred, filed as 5.0)
The panel holds about 79,000 compounds, 15% with a hit somewhere; the sample as a whole holds those more often. Active and inactive are the calls of the source. Rule as the data show it: active = growth inhibition above about 70%; inactive = the rest.
Valid outcomes are listed here; reply with one: active, inactive

Cn1c(C2CCC(=O)N2Cc2ccccc2)n[nH]c1=S (stereo not drawn); inactive
C=C1CCC[C@@H]2[C@@](C)(CC3=CC(=O)C=CC3=O)C(C)CC[C@]12C (stereo partly drawn); active
CCCC(O)[C@@]1(CC)CC(C)C(O)(C2(C)C[C@H](C)[C@@H](C(CC)C(=O)C(C)[C@@H](O)[C@H](C)C3OC(O)(C(CC)C(=O)O)[C@@H](C)C(O)C3CC)O2)O1 (stereo partly drawn); inactive
CC(=O)C(C=O)C(C)=O.CC(=O)CC(C)=O.CC(=O)CC(C)=O.[Ru]; inactive

**Q:** Each compound tested received a call. Report the one for ON1CCc2c([nH]c3ccccc23)C1c1ccc(Cl)cc1 (stereo not drawn) .
**A:** active

**Q:** Also check COc1c(O)cc(C=O)cc1[N+](=O)[O-]
**A:** inactive

**Q:** Also check CC(C)(C)c1cc2c(c(C(C)(C)C)c1O)CC(=O)O2
**A:** active

**Q:** Also check CCC(C)OC(=O)c1cccc(C)c1 (stereo not drawn)
**A:** inactive

**Q:** Also check COc1cc2c(cc1O)-c1c(cnn1-c1ccccc1)CCC2
**A:** active

**Q:** Also check CCC(=O)C(CC)(c1ccc(OC(C)=O)cc1)c1ccc(OC(C)=O)cc1
**A:** active

**Q:** Also check Cc1cc2c(c(C(N)=O)c1C)-c1cccc(F)c1C2=O
**A:** inactive

**Q:** Also check COc1ccc(-c2[nH]c(-c3ccc(OC)cc3)c(-c3ccccn3)c2-c2ccccn2)cc1
**A:** inactive

**Q:** Also check O=C(c1ccccc1)C1C(c2ccccc2)OP(c2ccccc2)(c2ccccc2)(c2ccccc2)C1c1ccccc1 (stereo not drawn)
**A:** active

**Q:** Also check CCCCCCCCCCCCCCCCCCOC(=O)Nc1ccc(C)c(NC(=O)OCCCCCCCCCCCCCCCCCC)c1
**A:** inactive
